The origin of these recorded values is patent US20220323406A1.

SSMD.CTG.Rep (strictly standardized mean difference) reference
Test system: ENR+CD organoids
Test: Primary screen: ATP (CellTiter-Glo 3D, CTG) cell number/viability, 2.5-D 384-well ENR+CD organoids;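 also: compounds given at plating and again on day 3 over a 6-day differentiation from ENR+CV stem-cell-enriched precursors, ATP measured on day 6, plate median as control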
Conditions: primary screen, 3rd dose row of the treatment (2.00 uM by row order; dose not reprinted)
Form rule: numeric answer, no unit written next to it.

Recorded results for 3 compounds are shown here.
C=C1C(=O)O[C@H]2[C@H]1CC/C(C)=C/CC[C@@]1(C)O[C@@H]21 [(−)-Parthenolide] | 0.482
O=C(O)c1ccc(N2C(=O)/C(=C\c3ccc(-c4ccc([N+](=O)[O-])cc4)o3)C=C2c2ccccc2)cc1 | 0.022
CN1CCc2cc3c(cc2[C@H]1[C@@H]1OC(=O)c2c1ccc1c2OCO1)OCO3 [(+)-Bicuculline] | −0.237

Moving on to the next compound.
Data point: C[C@H](Oc1cc(-c2cnn(C3CCNCC3)c2)cnc1N)c1c(Cl)ccc(F)c1Cl [(S)-crizotinib] ; SSMD.CTG.Rep (strictly standardized mean difference) = 0.285

* * *

System: ENR+CD organoids (ISC to Paneth cell differentiation)
Assay: Primary screen: basal (non-stimulated) lysozyme secretion LYZ.NS, 2.5-D 384-well ENR+CD organoid differentiation
Format: cell-based, mouse
Settings: primary screen, dose 0.40 uM
measuredEndpoint: Dose.FC.LYZ.NS (log2 fold change)
Give the quantity in log2 fold change, number only.

These recorded examples may help you get a feel for the data.
C[C@]1(c2nc3c(C(N)=O)cccc3[nH]2)CCCN1 | 0.139
CN1CCCCC1Cn1cc(C(=O)c2cc([N+](=O)[O-])ccc2I)c2ccccc21 (stereo not shown) | 0.004
CC[C@@H]1C(=O)N(C)c2cnc(Nc3ccc(C(=O)NC4CCN(C)CC4)cc3OC)nc2N1C1CCCC1 | −0.129

Per the records, this compound ( C[C@@H]1C(=O)O[C@H]2C[C@@]34[C@H]5C[C@@H](C(C)(C)C)[C@]36[C@@H](OC(=O)[C@@H]6O)O[C@@]4(C(=O)O5)[C@]21O [Ginkgolide A] ) has Dose.FC.LYZ.NS equal to 0.025

* * *

Test system: ENR+CD organoids (ISC to Paneth cell differentiation)
Experiment: Primary screen: basal (non-stimulated) lysozyme secretion LYZ.NS, 2.5-D 384-well ENR+CD organoid differentiation
Type: cell-based, mouse
Conditions: primary screen, dose 0.08 uM
Structures can show the parent of a compound that is named as a salt.
measuredEndpoint: Dose.FC.LYZ.NS (log2 fold change)
Provide only the numeric value, understood in log2 fold change.

Cl.Cl.Cl.O[C@@H](COc1cccc2ncccc12)CN1CCN([C@@H]2c3ccccc3[C@@H]3[C@H](c4ccccc42)C3(F)F)CC1 [Zosuquidar (LY335979) 3HCl] | 0.096
CCOC(=O)[C@H]1O[C@@H]1C(=O)N[C@@H](CC(C)C)C(=O)NCCC(C)C [Aloxistatin] | 0.020
COc1ccccc1Oc1c(NS(=O)(=O)c2ccc(C(C)(C)C)cc2)nc(-c2ncccn2)nc1OCCO [Bosentan Hydrate] | 0.090
Cc1c(-c2ccc(O)cc2)n(Cc2ccc(OCCN3CCCCCC3)cc2)c2ccc(O)cc12 [Bazedoxifene HCl] | 0.159
COc1c(O)cc2c(c1O)[C@@H]1O[C@H](CO)[C@@H](O)[C@H](O)[C@H]1OC2=O [Bergenin] | 0.164

Entry CC(C)c1c(C(=O)Nc2ccccc2)c(-c2ccccc2)c(-c2ccc(F)cc2)n1CC[C@@H](O)C[C@@H](O)CC(=O)[O-].CC(C)c1c(C(=O)Nc2ccccc2)c(-c2ccccc2)c(-c2ccc(F)cc2)n1CC[C@@H](O)C[C@@H](O)CC(=O)[O-].[Ca+2] [Atorvastatin Calcium] , Dose.FC.LYZ.NS reported as −0.009

* * *

Reported Dose.FC.LYZ.S by item:
Tested on: ENR+CD organoids (ISC to Paneth cell differentiation)
Test: Primary screen: CCh-stimulated lysozyme secretion LYZ.S, 2.5-D 384-well ENR+CD organoid differentiation
Assay type: cell-based, mouse
Conditions: primary screen, dose 0.40 uM, FC relative to plate median
Hi! Could you send only the number? It should be in log2 fold change, unit omitted.

Cc1ccc(-n2nccn2)c(C(=O)N2CCN(c3nc4cc(Cl)ccc4o3)CC[C@H]2C)c1 | 0.142
O=C(NC[C@H]1CN(c2ccc(N3CCOCC3=O)cc2)C(=O)O1)c1ccc(Cl)s1 | −0.027

// field: Dose.FC.LYZ.S; key: Cc1cc2c(cc1CC(=O)c1sccc1S(=O)(=O)Nc1onc(C)c1Cl)OCO2 [Sitaxentan sodium] ; value = −0.028

* * *

Tested on: ENR+CD organoids (ISC to Paneth cell differentiation)
Assay: Primary screen: CCh-stimulated lysozyme secretion LYZ.S, 2.5-D 384-well ENR+CD organoid differentiation
Format: cell-based, mouse
Conditions: primary screen, dose 0.08 uM
Structures can show the parent of a compound that is named as a salt.
Cut-off 0.08 log2 fold change on Dose.FC.LYZ.S: below means 1.0, at or above means 0.0.

CC(C)CCN1c2nc(Nc3cc(F)c(O)c(F)c3)ncc2N(C)C(=O)C1C (stereo not drawn) | 0.0
CC(C)c1cc(-c2n[nH]c(=O)n2-c2ccc3c(ccn3C)c2)c(O)cc1O [Ganetespib (STA-9090)] | 1.0
C=CC(=O)Nc1cccc(Oc2nc(Nc3ccc(N4CCN(C)CC4)cc3OC)ncc2Cl)c1 | 0.0
O=C(O)c1ccc(N2C(=O)/C(=C\c3ccc(-c4ccc([N+](=O)[O-])cc4)o3)C=C2c2ccccc2)cc1 | 0.0
CN(C)C(=O)Nc1cccc(-c2ccc(N(C)C)cc2)c1 | 1.0

[Q] Is it true that Dose.FC.LYZ.S reported for CN[C@@H](C)C(=O)N[C@H](C(=O)N1CCC[C@H]1C(=O)Nc1snnc1-c1ccccc1)C1CCCCC1 is less than 0.08 log2 fold change?
[A] 1.0

[Q] Criterion: Dose.FC.LYZ.S strictly below 0.08 log2 fold change. Is it met by CCN(c1cc(-c2ccc(CN3CCOCC3)cc2)cc(C(=O)NCc2c(C)cc(C)[nH]c2=O)c1C)C1CCOCC1 ?
[A] 1.0

[Q] I wonder whether COc1c(O)cc2c(c1O)[C@@H]1O[C@H](CO)[C@@H](O)[C@H](O)[C@H]1OC2=O has Dose.FC.LYZ.S below 0.08 log2 fold change. Can you tell?
[A] 0.0

[Q] Lab log: compare recorded Dose.FC.LYZ.S with 0.08 log2 fold change; is it strictly lower for CC(C)OC(=O)OCOP(=O)(CO[C@H](C)Cn1cnc2c(N)ncnc21)OCOC(=O)OC(C)C [Tenofovir Disoproxil Fumarate] ?
[A] 0.0

[Q] In the record for CC(C)n1c(/C=C/C(O)CC(O)CC(=O)O)c(-c2ccc(F)cc2)c2ccccc21 (stereo not drawn) [Fluvastatin Sodium] , is Dose.FC.LYZ.S less than 0.08 log2 fold change?
[A] 1.0

[Q] For C[C@@H]1COCCN1c1cc(C2(S(C)(=O)=O)CC2)nc(-c2cccc3[nH]ccc23)n1 , is the recorded Dose.FC.LYZ.S below the cut-off of 0.08 log2 fold change?
[A] 1.0

[Q] Say whether its Dose.FC.LYZ.S is strictly beneath 0.08 log2 fold change. Entry: CC(C)OC(=O)C1=CN(C(=O)c2ccc(F)c(F)c2)CC(C)(C)c2c1[nH]c1ccccc21
[A] 0.0

[Q] Is 0.08 log2 fold change strictly greater than the molecule's reported Dose.FC.LYZ.S? molecule: NC1(Cc2ccc(Cl)cc2)CCN(c2ncnc3[nH]ccc23)CC1
[A] 0.0

[Q] Criterion: Dose.FC.LYZ.S strictly below 0.08 log2 fold change. Is it met by COc1cccc2c1C(=O)c1c(O)c3c(c(O)c1C2=O)C[C@@](O)(C(C)=O)C[C@@H]3O[C@H]1C[C@H](N)[C@H](O)[C@H](C)O1 [Daunorubicin HCl] ?
[A] 1.0

[Q] Dear reviewer, please state whether C=C[C@@]1(C)CC(=O)[C@]2(O)[C@@]3(C)[C@@H](O)CCC(C)(C)[C@@H]3[C@H](O)[C@H](OC(C)=O)[C@@]2(C)O1 has Dose.FC.LYZ.S strictly beneath 0.08 log2 fold change.
[A] 1.0

[Q] Dose.FC.LYZ.S strictly < 0.08 log2 fold change for this molecule? CC(=O)O[C@]1(C(C)=O)CC[C@H]2[C@@H]3C=C(Cl)C4=CC(=O)[C@@H]5C[C@@H]5[C@]4(C)[C@H]3CC[C@@]21C [Cyproterone Acetate]
[A] 1.0

[Q] Is it true that Dose.FC.LYZ.S reported for CN1CCCCC1Cn1cc(C(=O)c2cc([N+](=O)[O-])ccc2I)c2ccccc21 (stereo not drawn) is less than 0.08 log2 fold change?
[A] 1.0

[Q] # strict comparison: is reported Dose.FC.LYZ.S < 0.08 log2 fold change? input = CS(=O)(=O)N1CCN(Cc2cc3nc(-c4cccc5[nH]ncc45)nc(N4CCOCC4)c3s2)CC1
[A] 1.0

* * *

Each entry below carries its reported Z.LYZ.NS.
System: ENR+CD organoids (ISC to Paneth cell differentiation)
Test: Primary screen: basal (non-stimulated) lysozyme secretion LYZ.NS, 2.5-D 384-well ENR+CD organoid differentiation
Assay type: cell-based, mouse
Conditions: primary screen, dose 0.40 uM, standard z score
Description: High-throughput screening.
Lab note: write the figure by itself, no unit.

Past entries and their recorded results:
Cc1cc2c(cc1CC(=O)c1sccc1S(=O)(=O)Nc1onc(C)c1Cl)OCO2 [Sitaxentan sodium] | −0.455
Cc1cc(Nc2ccc(NC(=O)c3ccc(Nc4ccnc5ccccc45)cc3)cc2)nc(N)n1 | 0.735
COc1cc2c(N3CCN(C(=O)Nc4ccc(OC(C)C)cc4)CC3)ncnc2cc1OCCCN1CCCCC1 | 1.066
C#CCC(Cc1cnc2nc(N)nc(N)c2n1)c1ccc(C(=O)N[C@@H](CCC(=O)O)C(=O)O)cc1 (stereo partly shown) [Pralatrexate] | −1.413
NCC(=O)Nc1ccc(-n2nc(C(F)(F)F)cc2-c2ccc3c(ccc4ccccc43)c2)cc1 | 0.285

Memo: O=C(Nc1ccncc1)c1cc([N+](=O)[O-])ccc1Cl , reported Z.LYZ.NS: −0.029

Per the records, this compound ( C1=N/C2=N/c3ccc(OCCN4CCCC4)c(c3)COC/C=C/COCc3cccc(c3)C(=C1)N2 [Pacritinib (SB1518)] ) has Z.LYZ.NS equal to −0.299

The recorded Z.LYZ.NS for CS(=O)(=O)c1cccc(CNc2nc(Nc3ccc4c(c3)CCC(=O)N4)ncc2C(F)(F)F)c1 is −0.401

The value of Z.LYZ.NS measured for the compound CCc1c(C(=O)NCCc2ccc(N3CCCCC3)cc2)[nH]c2ccc(Cl)cc12 turned out to be 0.445

# Z.LYZ.NS of O=C(NOCC1CC1)c1ccc(F)c(F)c1Nc1ccc(I)cc1Cl = −0.458

Sure, the documented Z.LYZ.NS for CC(=O)O[C@H]1C[C@@H]2CC[C@@H]3[C@H](CC[C@@]4(C)[C@H]3C[C@H]([N+]3(C)CCCCC3)[C@@H]4OC(C)=O)[C@@]2(C)C[C@@H]1[N+]1(C)CCCCC1.[Br-].[Br-] [Pancuronium dibromide] is 0.406

Summary for this compound, Cc1sc2c(c1C)C(c1ccc(Cl)cc1)=N[C@@H](CC(=O)Nc1ccc(O)cc1)c1nnc(C)n1-2 : Z.LYZ.NS is −2.317

response.value for CCCc1nc2c(C)cc(-c3nc4ccccc4n3C)cc2n1Cc1ccc(-c2ccccc2C(=O)O)cc1 (field: Z.LYZ.NS) = 1.124

Input COc1ccc(CNCc2cccc3ccccc23)cc1.Cl [ML133 HCl] . Output Z.LYZ.NS: −0.116

Summary for this compound, CCCC(=O)Nc1cccc(NC(=O)c2ccccc2Br)c1 : Z.LYZ.NS is −0.237

response.value for CNC(=O)c1cc(Oc2ccc(NC(=O)Nc3ccc(Cl)c(C(F)(F)F)c3)cc2)ccn1 (field: Z.LYZ.NS) = 0.520
